# credit: patent US12351571B2

measurement target: FGFR3 (Homo sapiens (Human), UniProt P22607)
measurement protocol: FGFR Enzyme Activity Assay (LanthaScreen TR-FRET), FGFR3
Type: biochemical
settings: 25 μM ATP, 10 minute incubation; read-out: FGFR3 Enz FRET IC50
Sequence (P22607 397-806): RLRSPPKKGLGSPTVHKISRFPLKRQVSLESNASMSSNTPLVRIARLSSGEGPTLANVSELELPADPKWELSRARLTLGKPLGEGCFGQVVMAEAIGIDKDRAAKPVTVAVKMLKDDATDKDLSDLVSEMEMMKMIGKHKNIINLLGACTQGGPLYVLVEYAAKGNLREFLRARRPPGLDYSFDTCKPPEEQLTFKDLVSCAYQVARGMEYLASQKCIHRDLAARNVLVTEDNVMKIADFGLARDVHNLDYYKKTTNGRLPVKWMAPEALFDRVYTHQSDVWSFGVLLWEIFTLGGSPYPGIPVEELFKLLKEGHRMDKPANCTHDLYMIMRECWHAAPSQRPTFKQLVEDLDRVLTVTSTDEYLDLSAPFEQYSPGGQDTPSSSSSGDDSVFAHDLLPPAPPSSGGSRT
reported endpoint: IC50 (nM)
# output: bare number, implied unit nM

Given the compound C=CC(=O)N1CC(C(=O)N2CC[C@@H](n3cc(-c4cnc5ccc(Nc6cc(OC)cc(OC)c6)cc5n4)cn3)C2)C1 , what is its reported IC50?
37

Same question for C=CC(=O)N1CC(O)(C(=O)N2CCC(n3cc(-c4cnc5ccc(N(C)c6cc(OC)cc(OC)c6)cc5n4)cn3)CC2)C1 please.
2

Same question for C=CC(=O)N1CC(OC)(C(=O)N2CCC(n3cc(-c4cnc5ccc(Nc6cc(OC)cc(OC)c6)cc5n4)cn3)CC2)C1 please.
24

---

measurement target: human wild type FGFR2 (Homo sapiens (Human), UniProt P21802)
Sequence (P21802 22-821): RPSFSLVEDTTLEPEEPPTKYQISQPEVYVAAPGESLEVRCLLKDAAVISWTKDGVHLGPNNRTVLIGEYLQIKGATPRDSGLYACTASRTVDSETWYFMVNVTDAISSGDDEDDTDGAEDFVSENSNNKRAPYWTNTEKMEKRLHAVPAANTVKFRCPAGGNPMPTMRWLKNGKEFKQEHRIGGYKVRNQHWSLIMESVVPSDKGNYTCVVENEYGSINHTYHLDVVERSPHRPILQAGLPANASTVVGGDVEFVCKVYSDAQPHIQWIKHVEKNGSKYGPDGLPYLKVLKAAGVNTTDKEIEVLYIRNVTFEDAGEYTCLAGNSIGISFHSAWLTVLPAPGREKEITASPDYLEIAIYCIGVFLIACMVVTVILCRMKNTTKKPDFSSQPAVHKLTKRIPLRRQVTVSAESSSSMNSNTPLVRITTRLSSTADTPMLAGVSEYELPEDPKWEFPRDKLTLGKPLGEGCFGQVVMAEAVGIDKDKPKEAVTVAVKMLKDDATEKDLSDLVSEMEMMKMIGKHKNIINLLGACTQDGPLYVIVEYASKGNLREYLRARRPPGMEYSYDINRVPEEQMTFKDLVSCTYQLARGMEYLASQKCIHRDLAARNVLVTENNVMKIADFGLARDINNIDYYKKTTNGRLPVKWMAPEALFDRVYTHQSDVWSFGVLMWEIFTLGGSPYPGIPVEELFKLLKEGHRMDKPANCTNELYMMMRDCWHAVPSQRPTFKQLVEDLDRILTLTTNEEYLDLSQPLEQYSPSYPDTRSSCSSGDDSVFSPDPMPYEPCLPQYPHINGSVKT
measurement protocol: FGFR2 pFGFR Cell Assay
settings: HEK-293 cells, 1 hour compound, 30 ng/ml human FGF-acidic, ELISA
Experimental: HEK-293 cells transfected with dox-inducible human wild type FGFR2 (SEQ ID NO: 3) were plated in a collagen or poly-D-lysine coated 96 well flat bottom plates at 4×10^5 cells/well in complete DMEM medium containing 10% FBS and 1 μg/ml doxycycline and allowed to attach for 24 h at 37° C., 5% CO2. […] Phospho FGFR2 was measured by ELISA (R&D Systems cat. no. DYC684). […] Optical density was measured for each well using a Versamax reader at a wavelength of 450 nm. […]
Field: label. Allowed values: true (IC50 < 200 nM) or false (IC50 >= 200 nM).

Please check: IC50 for C=CC(=O)N1CC(OC)(C(=O)N2CCC(n3cc(-c4cnc5ccc(Nc6cc(OC)cc(OC)c6)cc5n4)cn3)CC2)C1 , strictly under 200 nM or not?
true

Same question for COc1cc(Nc2ccc3ncc(-c4cn(C5CCN(C(=O)C6(F)CN(C(=O)/C=C/CN(C)C)C6)CC5)nc4C)nc3c2)cc(OC)c1 please.
false

Same question for C=CC(=O)N1CC[C@@H](C(=O)N2CCC(n3cc(-c4cnc5ccc(Nc6cc(OC)cc(OC)c6)cc5n4)cn3)CC2)C1 please.
true

Same question for C=CC(=O)N1CCC(C(=O)N2CCC(n3cc(-c4cnc5ccc(Nc6cc(OC)cc(OC)c6)cc5n4)cn3)CC2)CC1 please.
true

Same question for C=CC(=O)N1CC(CN2CCC(n3cc(-c4cnc5ccc(Nc6cc(OC)cc(OC)c6)cc5n4)cn3)CC2)(OC)C1 please.
true

Same question for COc1cc(Nc2ccc3ncc(-c4cnn(C5CCN(C(=O)C6(F)CN(C(=O)/C=C/CN(C)C)C6)CC5)c4C)nc3c2)cc(OC)c1 please.
true

Same question for COc1cc(Nc2ccc3ncc(-c4ccc(N5CCN(C(=O)C6(F)CN(C(=O)/C=C/CN(C)C)C6)CC5)nc4)nc3c2)cc(OC)c1 please.
true

Same question for C=CC(=O)N1CC(C(=O)N2CCN(c3ccc(-c4cnc5ccc(Nc6cc(OC)cc(OC)c6)cc5n4)cn3)CC2)C1 please.
false

Same question for C=CC(=O)N1CC(C(=O)N2CCC(n3cc(-c4cnc5ccc(Nc6cc(OC)cc(OC)c6)cc5n4)cn3)CC2)C1 please.
true

---

measurement target: human wild type FGFR1 (Homo sapiens (Human))
Sequence (P11362 22-822): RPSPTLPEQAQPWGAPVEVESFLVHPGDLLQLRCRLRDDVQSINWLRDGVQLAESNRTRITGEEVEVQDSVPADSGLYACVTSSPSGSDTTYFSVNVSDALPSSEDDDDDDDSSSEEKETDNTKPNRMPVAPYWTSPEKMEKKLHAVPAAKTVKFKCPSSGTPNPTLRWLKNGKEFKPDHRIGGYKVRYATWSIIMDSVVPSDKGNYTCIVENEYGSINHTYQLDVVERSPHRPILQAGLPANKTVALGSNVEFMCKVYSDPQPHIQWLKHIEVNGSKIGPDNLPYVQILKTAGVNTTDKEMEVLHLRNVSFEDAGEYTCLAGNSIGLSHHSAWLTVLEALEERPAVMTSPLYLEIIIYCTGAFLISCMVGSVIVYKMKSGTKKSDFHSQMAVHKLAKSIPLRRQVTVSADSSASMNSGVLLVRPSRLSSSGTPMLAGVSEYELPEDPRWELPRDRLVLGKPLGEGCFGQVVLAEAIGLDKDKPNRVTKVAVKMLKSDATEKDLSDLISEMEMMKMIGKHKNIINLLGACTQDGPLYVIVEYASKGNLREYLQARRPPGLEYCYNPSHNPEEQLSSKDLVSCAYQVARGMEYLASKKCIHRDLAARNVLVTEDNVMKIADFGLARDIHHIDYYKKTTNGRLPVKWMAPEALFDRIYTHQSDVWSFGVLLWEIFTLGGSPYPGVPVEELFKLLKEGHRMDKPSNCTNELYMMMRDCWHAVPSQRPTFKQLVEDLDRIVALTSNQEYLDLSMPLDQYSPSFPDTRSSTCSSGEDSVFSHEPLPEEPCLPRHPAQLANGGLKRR
measurement protocol: FGFR1 pERK Cell Assay
settings: HEK-293 cells, 1 hour compound, 100 ng/ml human FGF-acidic; maximum concentration 5 μM
reported endpoint: IC50 (nM)
# output: bare number, implied unit nM

Given the compound C=CC(=O)N1CC(F)(C(=O)N2CCC(n3cc(-c4cnc5ccc(Nc6cc(OC)cc(OC)c6)cc5n4)cn3)CC2)C1 [Example 4] , what is its reported IC50?
170

Same question for COc1cc(Nc2ccc3ncc(-c4cnn(C5CCN(C(=O)C6(F)CN(C(=O)/C=C/CN(C)C)C6)CC5)c4)nc3c2)cc(OC)c1 [Example 10] please.
134

Same question for COc1cc(Nc2ccc3ncc(-c4cnn(C5CCN(C(=O)C6(C#N)CN(C(=O)/C=C/CN(C)C)C6)CC5)c4)nc3c2)cc(OC)c1 [Example 11] please.
149

Same question for C=CC(=O)N1CC(OC)(C(=O)N2CCC(n3cc(-c4cnc5ccc(Nc6cc(OC)cc(OC)c6)cc5n4)cn3)CC2)C1 [Example 24] please.
225

Same question for COc1cc(Nc2ccc3ncc(-c4ccc(N5CCN(C(=O)C6(F)CN(C(=O)/C=C/CN(C)C)C6)CC5)nc4)nc3c2)cc(OC)c1 [Example 7] please.
1530

Same question for C=CC(=O)N1CC(C(=O)N2CCC(n3cc(-c4cnc5ccc(Nc6cc(OC)cc(OC)c6)cc5n4)cn3)CC2)C1 [Example 1] please.
507

Same question for C=CC(=O)N1CC(C(=O)N2CCC(n3ncc(-c4cnc5ccc(Nc6cc(OC)cc(OC)c6)cc5n4)c3C)CC2)C1 [Example 18] please.
3660

---

Provide the reported pIC50 of each item.
measurement target: UniProt P11362
The meaning of pIC50 here: minus log10 of the concentration in molar units.

Given the molecule C=CC(=O)N1CCC(C(=O)N2CCC(n3cc(-c4cnc5ccc(Nc6cc(OC)cc(OC)c6)cc5n4)cn3)CC2)CC1 , what is its reported pIC50?
7.59

Same question for COc1cc(Nc2ccc3ncc(-c4ccc(N5CCN(C(=O)C6(F)CN(C(=O)/C=C/CN(C)C)C6)CC5)nc4C)nc3c2)cc(OC)c1 please.
5.18

Same question for C=CC(=O)N1CC(F)(C(=O)N2CCN(c3cc(C)c(-c4cnc5ccc(Nc6cc(OC)cc(OC)c6)cc5n4)cn3)CC2)C1 please.
5.63

Same question for COc1cc(Nc2ccc3ncc(-c4cnc(N5CCN(C(=O)C6(F)CN(C(=O)/C=C/CN(C)C)C6)CC5)cc4C)nc3c2)cc(OC)c1 please.
5.38

Same question for COc1cc(Nc2ccc3ncc(-c4ccc(N5CCN(C(=O)C6CN(C(=O)/C=C/CN(C)C)C6)CC5)nc4)nc3c2)cc(OC)c1 please.
6.88

Same question for COc1cc(Nc2ccc3ncc(-c4cn(C5CCN(C(=O)C6(F)CN(C(=O)/C=C/CN(C)C)C6)CC5)nc4C)nc3c2)cc(OC)c1 please.
6.88

Same question for C=CC(=O)N1CC[C@@H](C(=O)N2CCC(n3cc(-c4cnc5ccc(Nc6cc(OC)cc(OC)c6)cc5n4)cn3)CC2)C1 please.
7.62

---

measurement target: FGFR3 (Homo sapiens (Human), UniProt P22607)
measurement protocol: LC/MS FGFR3 kobs assay (covalent modification)
Format: biochemical
settings: 500 nM FGFR3, 3 μM compound
Sequence (P22607 449-759): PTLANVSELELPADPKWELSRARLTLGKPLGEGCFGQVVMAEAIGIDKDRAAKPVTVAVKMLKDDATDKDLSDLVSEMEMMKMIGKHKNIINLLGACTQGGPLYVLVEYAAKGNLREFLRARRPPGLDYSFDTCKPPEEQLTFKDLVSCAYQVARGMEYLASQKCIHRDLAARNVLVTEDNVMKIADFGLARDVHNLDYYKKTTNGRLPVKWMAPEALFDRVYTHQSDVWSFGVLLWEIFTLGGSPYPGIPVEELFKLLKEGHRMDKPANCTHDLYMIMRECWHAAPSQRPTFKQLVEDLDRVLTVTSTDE
reported endpoint: FGFR3 Enz kobs (min⁻¹)
# output: bare number, implied unit min⁻¹

Given the compound C=CC(=O)N1CC(O)(C(=O)N2CCC(n3cc(-c4cnc5ccc(N(C)c6cc(OC)cc(OC)c6)cc5n4)cn3)CC2)C1 , what is its reported FGFR3 Enz kobs?
0.00987

Same question for COc1cc(Nc2ccc3ncc(-c4cnn(C5CCN(C(=O)C6(F)CN(C(=O)/C=C/CN(C)C)C6)CC5)c4C)nc3c2)cc(OC)c1 please.
0.08024

Same question for C=CC(=O)N1CC(CN2CCC(n3cc(-c4cnc5ccc(Nc6cc(OC)cc(OC)c6)cc5n4)cn3)CC2)C1 please.
0.01591

Same question for C=CC(=O)N1CC(F)(C(=O)N2CCN(c3ccc(-c4cnc5ccc(Nc6cc(OC)cc(OC)c6)cc5n4)cn3)CC2)C1 please.
0.06319

---

measurement target: recombinant human FGFR1 catalytic domain (Homo sapiens (Human), UniProt P11362)
Sequence (P11362 other isoform, or with tags, fused parts or gaps): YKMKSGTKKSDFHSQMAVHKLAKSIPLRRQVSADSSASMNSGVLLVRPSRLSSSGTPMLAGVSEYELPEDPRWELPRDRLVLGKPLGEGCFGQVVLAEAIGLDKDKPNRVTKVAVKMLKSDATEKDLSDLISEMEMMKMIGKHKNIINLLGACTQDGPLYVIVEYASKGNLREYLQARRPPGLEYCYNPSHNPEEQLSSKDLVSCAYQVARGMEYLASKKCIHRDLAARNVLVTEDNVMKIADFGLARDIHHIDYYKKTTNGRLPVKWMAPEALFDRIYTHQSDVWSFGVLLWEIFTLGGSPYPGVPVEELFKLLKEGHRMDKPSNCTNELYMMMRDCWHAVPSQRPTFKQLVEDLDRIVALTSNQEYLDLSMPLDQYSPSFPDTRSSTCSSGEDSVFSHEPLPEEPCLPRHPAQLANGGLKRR
measurement protocol: FGFR Enzyme Activity Assay (LanthaScreen TR-FRET), FGFR1
settings: 15 μM ATP, 20 minutes incubation; read-out: FGFR1 Enz FRET IC50
Experimental: FGFR1 kinase activity was measured by the Invitrogen LanthaScreen™ Assay technology which directly measures the amount of substrate phosphorylation by Time-resolved fluorescence energy transfer (TR-FRET) using a flourescently-labeled peptide and Europium-labeled antibody. […] 100 POC was determined using no test compounds and 0 POC was determined using no enzyme. […]
reported endpoint: pIC50
The meaning of pIC50 here: minus log10 of the concentration in molar units.

Given the compound C=CC(=O)N1CC(F)(C(=O)N2CCN(c3ccc(-c4cnc5ccc(Nc6cc(OC)cc(OC)c6)cc5n4)cn3)CC2)C1 , what is its reported pIC50?
6.08

Same question for COc1cc(Nc2ccc3ncc(-c4ccc(N5CCN(C(=O)C6(F)CN(C(=O)/C=C/CN(C)C)C6)CC5)nc4)nc3c2)cc(OC)c1 please.
6.44

Same question for COc1cc(Nc2ccc3ncc(-c4cnn([C@@H]5CCN(C(=O)C6(F)CN(C(=O)/C=C/CN(C)C)C6)C5)c4)nc3c2)cc(OC)c1 please.
6.54

Same question for C=CC(=O)N1CC(C(=O)N2CCN(c3ccc(-c4cnc5ccc(Nc6cc(OC)cc(OC)c6)cc5n4)cn3)CC2)C1 please.
6.35

Same question for C=CC(=O)N1CC(C(=O)N2CCN(c3cccc(-c4cnc5ccc(Nc6cc(OC)cc(OC)c6)cc5n4)c3)CC2)C1 please.
5.75

Same question for COc1cc(Nc2ccc3ncc(-c4cnn(C5CCN(C(=O)C6(F)CN(C(=O)/C=C/CN(C)C)C6)CC5)c4C)nc3c2)cc(OC)c1 please.
6.42
